These data points were gathered from patent US9216999B2.

- tested-on: UniProt:O60674
- assay-overview: Enzyme assay (Assay Example^a 1), JAK2
- Type: biochemical
- particulars: ATP 100 μM
assay-endpoint: IC50 (µM)
Answers are plain numbers, in µM.

Answered cases to consult:
{"compound": "OC1CCN(C[C@H]2CC[C@H](c3nnn4cnc5[nH]ccc5c34)CC2)CC1 [compound 271]", "IC50 [µM]": 0.063}
{"compound": "N#CC(C#N)C[C@H]1CC[C@H](c2nnn3cnc4[nH]ccc4c23)CC1 [compound 432]", "IC50 [µM]": 0.0088}
{"compound": "O[C@H]1Cc2ccccc2[C@H]1NC1CCC(c2nnn3cnc4[nH]ccc4c23)CC1 (mixture of isomers) [compound 378]", "IC50 [µM]": 0.071}
{"compound": "FC1(F)Oc2ccc(CN3CCC(c4nnn5cnc6[nH]ccc6c45)CC3)cc2O1 [compound 227]", "IC50 [µM]": 0.021}

Prompt: Given the entry CC(C)(C)OC(=O)N[C@@H]1CCN(C[C@H]2CC[C@H](c3nnn4cnc5[nH]ccc5c34)CC2)C1 [compound 299] , report its measured IC50.
Response: 0.17
